Assay: RPMI8226 myeloma cell viability, profiling panel, resazurin fluorescence, basal, 24 h, PK04 Diversity Set (AID 1180);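 further: RPMI8826 multiple myeloma cell line at 5000 cells per well; test concentration not given here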
Details: higher = more signal
z-score overview
measured_quantity: z-score

{"columns": ["compound", "result"],
 "data": [
  ["COc1ccc([Si](C)(C)[C@H]2[C@H](CCO)O[C@@]3(C(=O)N(Cc4ccccc4)c4ccc(N5C(=O)c6cccc7cccc5c67)cc43)[C@@H]2C)cc1", -2.04],
  ["C=CCC(OC(C)=O)[C@@H]1[C@@H](N(Cc2cccc3ccccc23)C(=O)c2ccc(C)cc2)c2cc(OCCCO)ccc2N1C(=O)c1ccc(-c2ccccc2)cc1 (some centres undefined)", 0.734],
  ["CCN1C(C)=C(C(=O)OC)[C@@H](c2ccccc2)N2C(=O)[C@@]3(C(=O)OC)O[C@@]12[C@@H]1C(=O)N(C)C(=O)[C@@H]13", 1.09],
  ["O=C(NCc1ccccc1)[C@@]1(Cc2ccccc2)COC(c2ccc(OCCCO)cc2)=N1", -5.69]
]}
